Reference source: patent US20260069588A1

Consider the following compounds; for each one, report its Tmax.
# Method: clinical
# Applied conditions: human, in vivo, 180 mg, Tmax
Write down the numeric answer in h and omit the unit.

compound `O=C1CC[C@@H](N2Cc3cc(N4CCN(CC5CCN(c6ccc([C@@H]7c8ccc(O)cc8CC[C@@H]7c7ccccc7)cc6)CC5)CC4)ccc3C2=O)C(=O)N1` , Tmax observed: 7.8

Record `O=C1CC[C@H](N2Cc3cc(N4CCN(CC5CCN(c6ccc([C@@H]7c8ccc(O)cc8CC[C@@H]7c7ccccc7)cc6)CC5)CC4)ccc3C2=O)C(=O)N1` . Reported Tmax: 6

* * *

# Method: clinical
# Applied conditions: human, in vivo, 500 mg, Cmax
Metric: Cmax (ng/mL)
Kindly provide the numeric value in ng/mL only, without the unit symbol.

Reported Cmax ( `O=C1CC[C@H](N2Cc3cc(N4CCN(CC5CCN(c6ccc([C@@H]7c8ccc(O)cc8CC[C@@H]7c7ccccc7)cc6)CC5)CC4)ccc3C2=O)C(=O)N1` ) = 1050
